target: recombinant purified human EHMT2 913-1193 (Homo sapiens, UniProt Q96KQ7); construct: Recombinant purified human EHMT2 913-1193 (55 μM) synthesized by Viva was used for all experiments; purchased Viva; test: EHMT2 enzyme assay on histone peptide substrate (3H-SAM Flashplate); assay type: biochemical; settings: read-out: EHMT2 PEP (IC50 μM)
Sequence (Q96KQ7 913-1193): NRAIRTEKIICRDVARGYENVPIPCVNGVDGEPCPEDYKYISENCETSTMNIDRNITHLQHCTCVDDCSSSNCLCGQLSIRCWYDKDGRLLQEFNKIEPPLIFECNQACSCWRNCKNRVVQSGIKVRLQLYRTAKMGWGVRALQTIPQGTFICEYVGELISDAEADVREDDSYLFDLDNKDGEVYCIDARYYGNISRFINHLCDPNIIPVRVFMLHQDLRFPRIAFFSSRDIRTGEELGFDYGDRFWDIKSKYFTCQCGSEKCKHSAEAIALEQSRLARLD
Exercise: for every item that follows, state its recorded IC50.

Request: Can you look up the measured IC50 of `CNc1cc(C)nc(Nc2ccc(C)c(C(=O)Nc3cccnc3)c2)n1` for me?
Result: > 10 µM

Request: Can you look up the measured IC50 of `CNc1cc(C)nc(Nc2ccc(OC)c(-c3nnc4n3CCN(C(=O)OC(C)(C)C)C4)c2)n1` for me?
Result: > 10 µM

Request: Can you look up the measured IC50 of `CNc1cc(C)nc(Nc2ccc(C)c(-c3cc4ccccc4[nH]3)c2)n1` for me?
Result: > 10 µM

Request: Can you look up the measured IC50 of CNc1cc(C)nc(Nc2ccc(OC)c(-n3cc(C4CCCN4)cn3)c2)n1 (stereo not drawn) for me?
Result: < 0.1 µM

Request: Can you look up the measured IC50 of COc1cc2c(cc1-n1cc(C3CCCN3)nn1)N=C(N)C21CCC1 (stereo not drawn) for me?
Result: < 0.1 µM

Request: Can you look up the measured IC50 of `COc1cc(NC2CCNCC2)ncc1-c1cc2[nH]ccc2cn1` for me?
Result: 1 to 10 µM

Request: Can you look up the measured IC50 of `CNc1cc(C)nc(Nc2ccc(OC)c(-c3nccc(NC)n3)c2)n1` for me?
Result: 1 to 10 µM

Request: Can you look up the measured IC50 of `CNc1cc(C)nc(Nc2ccc(OC)c(-c3nc4cnccn4n3)c2)n1` for me?
Result: > 10 µM

Request: Can you look up the measured IC50 of `CNCc1cnn(-c2c(OC)ccc(Nc3nc(C)cc(NC)n3)c2OC)c1` for me?
Result: 0.1 to 1 µM

---

Exercise: for every item that follows, state its recorded IC50.
target: EHMT1 (Homo sapiens); experiment: EHMT1 PEP (EHMT1 peptide enzyme assay); format: biochemical; details: peptide substrate enzyme assay
Sequence (Q9H9B1 whole entry): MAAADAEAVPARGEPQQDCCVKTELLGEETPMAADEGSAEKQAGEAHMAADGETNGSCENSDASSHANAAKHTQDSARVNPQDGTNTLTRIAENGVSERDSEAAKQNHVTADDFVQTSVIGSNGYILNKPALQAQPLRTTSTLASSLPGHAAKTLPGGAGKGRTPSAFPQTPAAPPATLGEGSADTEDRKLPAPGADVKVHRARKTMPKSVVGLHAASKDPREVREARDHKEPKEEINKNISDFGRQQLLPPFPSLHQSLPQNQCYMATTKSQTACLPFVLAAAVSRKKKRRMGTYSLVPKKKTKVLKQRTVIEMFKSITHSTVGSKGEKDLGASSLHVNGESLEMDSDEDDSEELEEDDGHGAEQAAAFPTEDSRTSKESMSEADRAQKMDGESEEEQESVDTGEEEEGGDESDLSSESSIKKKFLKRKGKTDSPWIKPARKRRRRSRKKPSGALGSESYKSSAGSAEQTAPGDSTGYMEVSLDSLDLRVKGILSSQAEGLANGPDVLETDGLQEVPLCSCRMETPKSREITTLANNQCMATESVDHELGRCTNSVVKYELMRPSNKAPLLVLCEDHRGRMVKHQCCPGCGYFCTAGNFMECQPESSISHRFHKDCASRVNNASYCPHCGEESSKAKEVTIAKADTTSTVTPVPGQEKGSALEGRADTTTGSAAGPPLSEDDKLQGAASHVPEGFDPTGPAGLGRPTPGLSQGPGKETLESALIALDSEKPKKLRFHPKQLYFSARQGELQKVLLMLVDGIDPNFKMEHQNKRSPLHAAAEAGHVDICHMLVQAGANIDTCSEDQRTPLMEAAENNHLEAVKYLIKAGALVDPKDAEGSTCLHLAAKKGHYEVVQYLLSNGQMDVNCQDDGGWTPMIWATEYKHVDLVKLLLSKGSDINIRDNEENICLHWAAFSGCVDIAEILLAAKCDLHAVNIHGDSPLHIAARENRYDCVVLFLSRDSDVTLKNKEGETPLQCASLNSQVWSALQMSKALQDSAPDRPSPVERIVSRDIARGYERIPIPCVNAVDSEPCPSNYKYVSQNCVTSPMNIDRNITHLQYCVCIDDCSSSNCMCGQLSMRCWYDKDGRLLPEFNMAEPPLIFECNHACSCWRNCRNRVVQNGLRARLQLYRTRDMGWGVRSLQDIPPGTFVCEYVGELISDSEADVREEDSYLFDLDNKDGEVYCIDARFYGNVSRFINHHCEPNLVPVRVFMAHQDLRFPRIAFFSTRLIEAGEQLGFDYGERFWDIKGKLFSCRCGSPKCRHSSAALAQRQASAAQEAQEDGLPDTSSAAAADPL
Where a name gives a salt, the structure may show the parent alone.

Request: What reported IC50 corresponds to CNc1cc(C)nc(Nc2ccc(OC)c(-c3cccc4[nH]ccc34)c2)n1 [Compound 33, hydrochloride] on EHMT1 (Homo sapiens)?
Result: > 10 µM

Request: What reported IC50 corresponds to `CNC1=Nc2cc(-c3[nH]c4cnccc4c3Cl)c(OC)cc2C12CCC2` on EHMT1 (Homo sapiens)?
Result: < 0.1 µM

Request: What reported IC50 corresponds to CNc1cc(C)nc(Nc2ccc(OC)c(-c3nc4n(n3)CCNC4)c2)n1 [Compound 8, hydrochloride] on EHMT1 (Homo sapiens)?
Result: 1 to 10 µM

Request: What reported IC50 corresponds to `CNCc1cnn(-c2cc(Nc3nc(C)cc(NC)n3)ccc2C(F)(F)F)c1` on EHMT1 (Homo sapiens)?
Result: < 0.1 µM

---

Target: recombinant purified human EHMT2 913-1193 (Homo sapiens, UniProt Q96KQ7)
Construct: Recombinant purified human EHMT2 913-1193 (55 μM) synthesized by Viva was used for all experiments; purchased Viva
Assay: EHMT2 enzyme assay on histone peptide substrate (3H-SAM Flashplate)
Assay type: biochemical
Conditions: read-out: EHMT2 PEP (IC50 μM)
Method: Recombinant purified human EHMT2 913-1193 (55 μM) synthesized by Viva was used for all experiments. Biotinylated histone peptides were synthesized by Biopeptide and HPLC-purified to >95% purity. […] 384-well Flashplates and 96-well filter binding plates were read on a TopCount microplate reader (PerkinElmer). […]
Structures can show the parent of a compound that is named as a salt.
Reported Endpoint: IC50

Request: What reported IC50 corresponds to `CNCc1cnn(-c2c(OC)ccc(Nc3nc(C)cc(NC)n3)c2F)c1` on recombinant purified human EHMT2 913-1193 (Homo sapiens, UniProt Q96KQ7)?
Result: < 0.1 µM

Request: What reported IC50 corresponds to CNc1cc(C)nc(Nc2ccc(OC)c(-n3cc(C(NC)C(F)(F)F)nn3)c2)n1 (stereo not shown) on recombinant purified human EHMT2 913-1193 (Homo sapiens, UniProt Q96KQ7)?
Result: > 10 µM

Request: What reported IC50 corresponds to `CNc1cc(C)nc(Nc2cnc(OC)c(-n3cc4c(n3)CCN(C)C4)c2)n1` on recombinant purified human EHMT2 913-1193 (Homo sapiens, UniProt Q96KQ7)?
Result: 1 to 10 µM

Request: What reported IC50 corresponds to CNc1cc(C)nc(Nc2ccc(OC)c(-n3cc4c(n3)CCCN4)c2)n1 [Compound 56, hydrochloride] on recombinant purified human EHMT2 913-1193 (Homo sapiens, UniProt Q96KQ7)?
Result: > 10 µM

---

Exercise: for every item that follows, state its recorded IC50.
molecular target: recombinant purified human EHMT2 913-1193 (Homo sapiens, UniProt Q96KQ7); construct: Recombinant purified human EHMT2 913-1193 (55 μM) synthesized by Viva was used for all experiments; purchased Viva; test: EHMT2 enzyme assay on histone peptide substrate (3H-SAM Flashplate); type: biochemical; details: read-out: EHMT2 PEP (IC50 μM)

Request: Can you look up the measured IC50 of CCN(CC)Cc1cn(-c2cc(Nc3nc(C)cc(NC)n3)ccc2OC)nn1 [Compound 143] for me?
Result: 0.1 to 1 µM

Request: Can you look up the measured IC50 of CNc1cc(C)nc(Nc2ccc(C)c(C(=O)Nc3cc(C#N)ccn3)c2)n1 [Compound 303] for me?
Result: 1 to 10 µM

Request: Can you look up the measured IC50 of CNc1cc(C)nc(Nc2ccc(OC)c(-c3cc4[nH]ccc4c(CN)n3)c2)n1 [Compound 296] for me?
Result: 0.1 to 1 µM

Request: Can you look up the measured IC50 of COc1cc(NC2CCNCC2)ncc1-c1cc2ccncc2[nH]1 [Compound 205] for me?
Result: > 10 µM

Request: Can you look up the measured IC50 of CNc1cc(C)nc(Nc2ccc(OC)c(-c3nnc(CN(C)C)[nH]3)c2)n1 [Compound 73] for me?
Result: > 10 µM

---

biological target: recombinant purified human EHMT2 913-1193 (Homo sapiens, UniProt Q96KQ7); construct: Recombinant purified human EHMT2 913-1193 (55 μM) synthesized by Viva was used for all experiments; purchased Viva; experiment: EHMT2 enzyme assay on histone peptide substrate (3H-SAM Flashplate); type: biochemical; conditions: read-out: EHMT2 PEP (IC50 μM)
Structures can show the parent of a compound that is named as a salt.
Exercise: for every item that follows, state its recorded IC50.

Request: Can you look up the measured IC50 of `CNc1cc(C)nc(Nc2ccc(F)c(-n3cc(CN4CCC4)cn3)c2F)n1` for me?
Result: 0.1 to 1 µM

Request: Can you look up the measured IC50 of `CNCc1cn(-c2cc3nc(NC)cc(C)c3cc2OC)nn1` for me?
Result: 1 to 10 µM

Request: Can you look up the measured IC50 of `CNc1cc(C)nc(Nc2ccc(OC)c(-c3cc(C4CC4)cnn3)c2)n1` for me?
Result: 1 to 10 µM

Request: Can you look up the measured IC50 of `CNc1cc(C)nc(Nc2ccc(OC)c(-n3cc([C@H]4CCCN4)cn3)c2)n1` for me?
Result: < 0.1 µM

Request: Can you look up the measured IC50 of `CNc1cc(C)nc(Nc2ccc(Cl)c(C(=O)Nc3ccnnc3)c2)n1` for me?
Result: > 10 µM

Request: Can you look up the measured IC50 of `CNc1cc(C)nc(Nc2ccc(OC)c(-n3cc(C)c4c3CCN(C)C4)c2)n1` for me?
Result: 1 to 10 µM

Request: Can you look up the measured IC50 of `CNCc1cnn(-c2c(F)ccc(Nc3nc(C)cc(NC)n3)c2Cl)c1` for me?
Result: < 0.1 µM

Request: Can you look up the measured IC50 of `CNc1cc(C)nc(Nc2ccc(OC)c(-c3cc4[nH]ccc4c(C#N)n3)c2)n1` for me?
Result: 0.1 to 1 µM

Request: Can you look up the measured IC50 of `CNc1nc(Nc2ccc(OC)c(-n3cc4c(n3)CCNC4)c2)nc(C)c1F` for me?
Result: 0.1 to 1 µM

Request: Can you look up the measured IC50 of `CNc1cc(C)nc(Nc2ccc(OC)c(-c3cc4[nH]ccc4c(CNC(C)=O)n3)c2)n1` for me?
Result: 0.1 to 1 µM

Request: Can you look up the measured IC50 of `CNC(=O)c1cnn(-c2cc(Nc3nc(C)cc(NC)n3)ccc2OC)c1` for me?
Result: > 10 µM

Request: Can you look up the measured IC50 of `CNc1cc(C)nc(Nc2cnc(OC)c(-c3cc4ccncc4[nH]3)c2)n1` for me?
Result: 1 to 10 µM

Request: Can you look up the measured IC50 of CNc1cc(C)nc(Nc2ccc(OC)c(-c3cccc4[nH]ccc34)c2)n1 [Compound 33, hydrochloride] for me?
Result: > 10 µM

Request: Can you look up the measured IC50 of `CNc1ccnc(Nc2ccc(OC)c(-c3cc4[nH]ncc4cn3)c2)n1` for me?
Result: > 10 µM

Request: Can you look up the measured IC50 of `CNc1cc(C)nc(Nc2ccc(OC)c(-n3cc4c(n3)CCN(C)C4)c2)n1` for me?
Result: < 0.1 µM

Request: Can you look up the measured IC50 of `CNc1cc(C)nc(Nc2ccc(OC)c(-c3c(C)nc4n3CCNC4)c2)n1` for me?
Result: > 10 µM

Request: Can you look up the measured IC50 of `CNc1cc(C)nc(Nc2ccc(OC)c(-n3ccc(CN(C)C(C)=O)n3)c2)n1` for me?
Result: > 10 µM
